Data origin, for the record: ChEMBL document CHEMBL3813596

We begin with a simple list: items and their reported Emax.
Biological target: Probable G-protein coupled receptor 34 (Mus musculus)
Experiment: Agonist activity at mouse GPR34 expressed in HEK293A cells cotransfected with chimeric Galphaq/il after 1.5 hrs by alkaline phosphatase tagged-TGFalpha shedding assay
Assay type: cell-based
Conditions: HEK293-A

Worked cases, Emax given:
> print(dat)
                                   molecule  recorded.value
1  Cc1ccc(Oc2cccc(COc3ccccc3CCC(=O)OC[C@H]3OCCC[C@H]3OP(=O)(O)OC[C@H](N)C(=O)O)c2)cc1           15.2%
2  CCCCCCCCCCCOc1ccccc1CCC(=O)OCc1ccccc1OP(=O)(O)OC[C@H](N)C(=O)O            5.9%
3  CCCCCCCC/C=C\CCCCCCCC(=O)OC[C@@H]1OCCC[C@@H]1OP(=O)(O)OC[C@@H](N)C(=O)O (single isomer, unassigned)           11.1%
4  N[C@@H](COP(=O)(O)OC[C@H]1OCCC[C@H]1OC(=O)CCc1ccccc1OCc1cccc(Oc2ccc(Cl)cc2)c1)C(=O)O           15.1%
5  N[C@@H](COP(=O)(O)O[C@H]1CCCO[C@@H]1COC(=O)CCc1ccccc1OCc1cccc(Oc2ccccc2)c1)C(=O)O            9.8%
6  Cc1ccc(Oc2cccc(COc3ccccc3CCC(=O)O[C@@H]3CCCO[C@@H]3COP(=O)(O)OC[C@H](N)C(=O)O)c2)cc1             16%
7  CCCCCCCCCCCOc1ccccc1CCC(=O)OC[C@H]1OCCC[C@H]1OP(=O)(O)OC[C@H](N)C(=O)O            5.2%

Proceeding to the next molecule to report its Emax.
Inquiry: Look at this molecule and give its reported Emax. CCCCCCCC/C=C\CCCCCCCC(=O)OC[C@@H]1OCCC[C@H]1OP(=O)(O)OC[C@@H](N)C(=O)O (single isomer, unassigned)
Reply text: 8.7%
